Reference source: PubChem BioAssay AID248

# Test system: L1210 leukemia ip in BDF1 mice, survival T/C
# PROTOCOL_SUMMARY: NCI In Vivo Anticancer Drug Screen. Data for tumor model L1210 Leukemia (intraperitoneal) in B6D2F1 (BDF1) mice
# RUN_PARAMETERS: endpoint: mean survival time; dose: 150.0 mg/kg/injection; schedule: Q01DX001 (ip); vehicle: saline; higher = longer survival
Inconclusive results and toxic doses are left out.
MEASURED_ATTRIBUTE: T/C

See these solved cases before continuing.
Quick one: T/C of `S=c1[nH]c2cc3ccccc3cc2[nH]1` ? 101 % of control

Entry to check: `NC1=CCNN1` 93 % of control

Entry to check: `N#Cc1ccc[n+](Cc2ccc3c(c2)OCO3)c1` 106 % of control

Entry to check: C[N+]1([O-])C2CCC1CC(OC(=O)C(O)c1ccccc1)C2 (configuration not stated) 100 % of control

Entry to check: `Cc1ccc2c(ccc(C)[n+]2C)c1` 108 % of control

Entry to check: `C=CCC1(C(=C)C)C(=O)NC(=S)NC1=O` 102 % of control

Then this molecule:
Quick one: T/C of `C=CS(=O)(=O)CCCCCCC` ? 94 % of control
